- tested system: FAAH (Mus musculus)
- Construct: Proteomes (mouse brain membrane fraction or cell lysates); from tissue; host or cells: mouse brain membrane fraction (or cell lysates, not specified)
- experimental details: In vitro competitive activity-based protein profiling (gel-based, FP-Rh or HT-01 probe)
- Type: biochemical
- test conditions: 1 μM inhibitor; read-out: % Inhibition at 1 μM, B = FAAH
experimental endpoint: inhibition at 1 µM

Recorded results for 5 molecules are shown here.
COc1cccc(N2CCN(C(=O)n3cc(C(F)(F)F)cn3)CC2)c1: > 75%
O=C(N1CCN(Cc2ccc(N3CCCC3)cc2)CC1)n1cc(Cl)cn1: > 75%
O=C(N1CCN(Cc2ccc(CN3CCOCC3)cc2)CC1)n1cc(Cl)cn1: > 75%
CN(CCN(C)S(C)(=O)=O)C(=O)n1cc(C(F)(F)F)cn1: < 25%
O=C(N1CCOCC1)n1cc(C(F)(F)F)cn1: > 75%

# ---- query molecule ----
Incoming: inhibition at 1 µM of `O=C(c1cnn(C(=O)N2CCN(Cc3ccncn3)CC2)c1)N1CCCCC1` on FAAH (Mus musculus)?
Outgoing: < 25%

---

Examples of compounds with documented inhibition at 10 µM follow.
- tested system: MAGL (Mus musculus, UniProt O35678)
- Construct: Proteomes (mouse brain membrane fraction or cell lysates); from tissue; host or cells: mouse brain membrane fraction (or cell lysates, not specified)
- Sequence (O35678 whole entry): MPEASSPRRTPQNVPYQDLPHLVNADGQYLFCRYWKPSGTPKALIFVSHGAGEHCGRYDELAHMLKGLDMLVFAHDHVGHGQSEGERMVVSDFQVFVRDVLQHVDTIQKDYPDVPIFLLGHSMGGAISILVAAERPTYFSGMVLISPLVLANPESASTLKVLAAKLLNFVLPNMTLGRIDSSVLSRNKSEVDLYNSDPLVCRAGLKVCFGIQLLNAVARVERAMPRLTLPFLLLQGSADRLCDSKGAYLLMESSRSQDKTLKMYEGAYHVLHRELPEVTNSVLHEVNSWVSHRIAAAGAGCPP
- experimental details: In vitro competitive activity-based protein profiling (gel-based, FP-Rh or HT-01 probe)
- Assay type: biochemical
- test conditions: 10 μM inhibitor
- Procedure: In Vitro Competitive Activity-Based Protein Profiling. Proteomes (mouse brain membrane fraction or cell lysates) (50 μL, 1.0 mg/mL total protein concentration) were preincubated with varying concentrations of inhibitors at 37° C. […] Following gel imaging, serine hydrolase activity was determined by measuring fluorescent intensity of gel bands corresponding to MAGL, ABHD6, FAAH, and PLA2G7 using ImageJ 1.43u software.

Incoming: // inhibition at 10 µM lookup, key: O=C(N1CCN(Cc2cccnc2)CC1)n1cc(-c2ccccc2)cn1 [Example 60]
Outgoing: 25 to 75%

Incoming: Entry Cc1cnn(C(=O)N2CCN(C)CC2)c1 [Example 163] : reported inhibition at 10 µM = ?
Outgoing: < 25%

---

Documented inhibition at 10 µM across a set of compounds
- tested system: ABHD6 (Mus musculus)
- Construct: Proteomes (mouse brain membrane fraction or cell lysates); from tissue; host or cells: mouse brain membrane fraction (or cell lysates, not specified)
- experimental details: In vitro competitive activity-based protein profiling (gel-based, FP-Rh or HT-01 probe)
- Assay type: biochemical
- test conditions: 10 μM inhibitor; read-out: % Inhibition at 10 μM, C = ABHD6

For orientation, consider the following solved cases.
Cc1cnn(C(=O)N2CCN(C(=O)c3ccccc3)CC2)c1: < 25%
Cc1cc(-c2ccccc2)ccc1CN1CCN(C(=O)n2cc(C(=O)N3CCOCC3)cn2)CC1: > 75%

Note: attention shifts to another entry.
Incoming: Item under review: `Cc1ccc(N2CCN(C(=O)n3cc(C(F)(F)F)cn3)CC2)cc1` . Reported inhibition at 10 µM?
Outgoing: > 75%

---

inhibition at 1 µM overview
- tested system: FAAH (Mus musculus)
- Construct: Proteomes (mouse brain membrane fraction or cell lysates); from tissue; host or cells: mouse brain membrane fraction (or cell lysates, not specified)
- Sequence (O08914 1-579): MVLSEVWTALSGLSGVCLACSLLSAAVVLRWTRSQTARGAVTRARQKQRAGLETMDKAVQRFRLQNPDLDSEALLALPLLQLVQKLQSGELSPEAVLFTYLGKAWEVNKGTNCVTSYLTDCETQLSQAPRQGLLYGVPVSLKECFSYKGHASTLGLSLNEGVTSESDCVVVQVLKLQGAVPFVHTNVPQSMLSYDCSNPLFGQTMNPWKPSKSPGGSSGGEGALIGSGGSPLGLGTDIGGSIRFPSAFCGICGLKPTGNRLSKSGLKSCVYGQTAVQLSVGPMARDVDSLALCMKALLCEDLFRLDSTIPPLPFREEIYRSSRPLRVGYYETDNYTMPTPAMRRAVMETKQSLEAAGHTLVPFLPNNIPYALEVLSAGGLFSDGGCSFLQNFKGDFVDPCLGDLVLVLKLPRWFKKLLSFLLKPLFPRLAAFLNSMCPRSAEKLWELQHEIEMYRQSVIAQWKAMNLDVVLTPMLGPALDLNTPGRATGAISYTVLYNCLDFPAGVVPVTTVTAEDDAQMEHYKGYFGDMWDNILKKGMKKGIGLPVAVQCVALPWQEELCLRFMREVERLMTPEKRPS
- experimental details: In vitro competitive activity-based protein profiling (gel-based, FP-Rh or HT-01 probe)
- Format: biochemical
- test conditions: 1 μM inhibitor; read-out: % Inhibition at 1 μM, B = FAAH

The examples below pair each entry with its known result.
CN(CCN(C)C(=O)n1cc(C#N)cn1)C(=O)c1ccccc1: > 75%
O=C(c1cnn(C(=O)N2CCN(Cc3ccncc3)CC2)c1)N1CCC1: < 25%

Incoming: Name the recorded inhibition at 1 µM for `O=C(N1CCN(c2cccc(N3CCOCC3)c2)CC1)n1cc(C(F)(F)F)cn1` .
Outgoing: > 75%

---

Known IC50 of a selection of molecules
- tested system: MAGL (Mus musculus)
- Construct: Proteomes (mouse brain membrane fraction or cell lysates); from tissue; host or cells: mouse brain membrane fraction (or cell lysates, not specified)
- experimental details: In vitro competitive activity-based protein profiling (gel-based, FP-Rh or HT-01 probe)
- Format: biochemical
- test conditions: mouse brain membrane fraction or cell lysates, 30 min preincubation at 37° C.; read-out: Mouse (IC50 value, nM) MAGL

Incoming: Look at this molecule and give its reported IC50. `CCN(Cc1ccc(OC)cc1)C(=O)n1cc(Cl)cn1`
Outgoing: > 1000 nM

Incoming: Quick one: IC50 for `N#Cc1cnn(C(=O)N2CCCCCC2)c1` ?
Outgoing: > 1000 nM

Incoming: Fill in: IC50 of `CN(Cc1cccc(-c2ccncc2)c1)C(=O)n1cc(-c2ccccc2)cn1` is ___
Outgoing: > 1000 nM

Incoming: Data request, read-out IC50, for `O=C(N1CCN(Cc2ccccc2Cl)CC1)n1cc(C(F)(F)F)cn1`
Outgoing: < 100 nM

---

- tested system: ABHD6 (Mus musculus, UniProt Q8R2Y0)
- Construct: Proteomes (mouse brain membrane fraction or cell lysates); from tissue; host or cells: mouse brain membrane fraction (or cell lysates, not specified)
- Sequence (Q8R2Y0 1-336): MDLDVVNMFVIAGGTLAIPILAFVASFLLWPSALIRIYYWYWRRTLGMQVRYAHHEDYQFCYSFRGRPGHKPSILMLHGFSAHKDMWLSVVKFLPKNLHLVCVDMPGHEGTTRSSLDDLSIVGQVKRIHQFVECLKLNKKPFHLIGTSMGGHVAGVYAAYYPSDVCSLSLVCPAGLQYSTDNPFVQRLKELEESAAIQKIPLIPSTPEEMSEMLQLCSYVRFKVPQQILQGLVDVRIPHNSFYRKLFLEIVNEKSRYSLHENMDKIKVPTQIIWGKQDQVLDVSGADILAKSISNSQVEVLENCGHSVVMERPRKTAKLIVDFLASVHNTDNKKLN
- experimental details: In vitro competitive activity-based protein profiling (gel-based, FP-Rh or HT-01 probe)
- Format: biochemical
- test conditions: 1 μM inhibitor; read-out: % Inhibition at 1 μM, C = ABHD6
inhibition at 1 µM values for the molecules below.

# example entries with known answers
O=C(N1CCCCC1)n1cc(-c2ccccc2)cn1: > 75%
Cc1cc(-c2ccccc2)ccc1CN1CCN(C(=O)n2cc(C(=O)N3CCC3)cn2)CC1: > 75%
CC(=O)N1CCN(C(=O)n2cc(C)cn2)CC1: < 25%
CN(Cc1cccc(-c2ccncc2)c1)C(=O)n1cc(C(F)(F)F)cn1: > 75%
CS(=O)(=O)N1CCN(C(=O)n2cc(C#N)cn2)CC1: > 75%

Incoming: Look up inhibition at 1 µM with ABHD6 (Mus musculus, UniProt Q8R2Y0) for this molecule: `Cc1cnn(C(=O)N2CCN(Cc3ccc(OCc4ccccc4)cc3)CC2)c1`
Outgoing: 25 to 75%

Incoming: Give recorded inhibition at 1 µM with ABHD6 (Mus musculus, UniProt Q8R2Y0) for the following molecule: `COc1ccccc1N1CCN(C(=O)n2cc(C(F)(F)F)cn2)CC1`
Outgoing: > 75%

Incoming: GET /values?readout=inhibition at 1 µM&system=ABHD6 (Mus musculus, UniProt Q8R2Y0)&item= `CC(=O)N1CCCN(C(=O)n2cc(C(F)(F)F)cn2)CC1`
Outgoing: < 25%

Incoming: Provide value of inhibition at 1 µM for this record tested with ABHD6 (Mus musculus, UniProt Q8R2Y0): `Cc1cnn(C(=O)N2CCN(Cc3ccccc3)CC2)c1`
Outgoing: > 75%

Incoming: Item `O=C(c1cnn(C(=O)N2CCN(Cc3nccs3)CC2)c1)N1CCCCC1` with ABHD6 (Mus musculus, UniProt Q8R2Y0) - inhibition at 1 µM?
Outgoing: > 75%
